# System: A549
# assay.overview: Cytotoxicity against human A549 cells assessed as reduction in cell viability measured after 48 hrs by MTT assay
# Format: cell-based
# test.conditions: A549, 48 h
pIC50: −log10 of the molar value.
Record true (1) whenever pIC50 is at 2 or higher; record false (0) when lower.

CCOP(=O)(OCC)C(C)(C)/[N+]([O-])=C/c1ccc(C(=O)O)cc1 = true (1)
CCOP(=O)(OCC)C(C)(C)/[N+]([O-])=C/c1c(C)cccc1C = true (1)
CCOP(=O)(OCC)C(C)(C)/[N+]([O-])=C/c1cc(O)cc(O)c1 = true (1)
COc1cc(/C=C/C(=O)O)ccc1O [FERULATE] = true (1)
CCOP(=O)(OCC)C(C)(C)/[N+]([O-])=C/c1ccc(O)cc1 = false (0)
CCOP(=O)(OCC)C(C)(C)/[N+]([O-])=C/c1ccc(O)c(O)c1 = true (1)
CCOP(=O)(OCC)C(C)(C)/[N+]([O-])=C/c1ccccc1C(F)(F)F = true (1)
CCOP(=O)(OCC)C(C)(C)/[N+]([O-])=C/c1ccccc1 = false (0)

Has O=C(O)c1cc(O)c(O)c(O)c1 [GALLIC ACID] a recorded pIC50 greater than or equal to 2?
true (1)

Has `CCOP(=O)(OCC)C(C)(C)/[N+]([O-])=C/c1cccc(O)c1` a recorded pIC50 greater than or equal to 2?
true (1)

Has `CCOP(=O)(OCC)C(C)(C)/[N+]([O-])=C/c1ccc(O)c(OC)c1` a recorded pIC50 greater than or equal to 2?
true (1)

Has `CCOP(=O)(OCC)C(C)(C)/[N+]([O-])=C/c1cc(OC)c(O)c(OC)c1` a recorded pIC50 greater than or equal to 2?
false (0)

Has O=C(O)/C=C/c1ccc(O)c(O)c1 [CAFFEIC ACID] a recorded pIC50 greater than or equal to 2?
true (1)

Has COc1cc(/C=C/C(=O)O)cc(OC)c1O [SINAPINATE] a recorded pIC50 greater than or equal to 2?
true (1)

Has `CCOC(=O)c1ccc(/C=[N+](\[O-])C(C)(C)P(=O)(OCC)OCC)cc1` a recorded pIC50 greater than or equal to 2?
true (1)

###

# System: Aorta
# assay.overview: Protection against NADPH-induced superoxide-mediated tissue damage in Sprague-Dawley rat endothelium-intact aortic rings assessed as methyl radical adduct formation pre-incubated for 30 mins at 200 uM in presence of DTC prior to NADPH addition measured after 60 mins followed by renewal of media with NADPH-compound mixture measured after 20 mins in presence of DPI by EPR spectroscopy
# Format: functional
Active and inactive are the calls of the source. No cut-off for these calls is given here.
property.measured: Activity

Known Activity results, listed for orientation:
CCOP(=O)(OCC)C(C)(C)/[N+]([O-])=C/c1ccc(O)c(O)c1 = inactive
CCOP(=O)(OCC)C(C)(C)/[N+]([O-])=C/c1cccc(O)c1 = inactive
CCOP(=O)(OCC)C(C)(C)/[N+]([O-])=C/c1ccc(O)c(OC)c1 = inactive
CCOP(=O)(OCC)C(C)(C)/[N+]([O-])=C/c1cc(OC)c(O)c(OC)c1 = inactive
CCOP(=O)(OCC)C(C)(C)/[N+]([O-])=C/c1ccc(O)cc1 = inactive
CCOP(=O)(OCC)C(C)(C)/[N+]([O-])=C/c1cc(O)c(O)c(O)c1 = inactive

In the following, a different compound is considered.
Please look at this compound and report its Activity: `CCOP(=O)(OCC)C(C)(C)/[N+]([O-])=C/c1cc(O)cc(O)c1`
inactive
